Test system: DU-145 prostate
Assay: NCI tumour cell line growth inhibition, 48 h
Overview of recorded TGI for various molecules
Give a bare numeral; the unit µM is implied.

molecule="CC(=O)Nc1ccc(/C=C/C(=O)N2CC(CCl)c3c2cc(N)c2ccccc32)cc1 (stereo not given)" measure=TGI reported=0.135
molecule="Cc1cnc(C(=O)NNc2nc3sc4c(c3c(=O)n2C)C(C)CCC4)cn1 (stereo not given)" measure=TGI reported=4.15
molecule="CC(C)CC(NC(=O)OC(C)(C)C)C(=O)Nc1ccc(Nc2nc(F)nc(-c3c4ccccc4cn3C)n2)cc1 (stereo not given)" measure=TGI reported=39.7
molecule=O=C1C(=Cc2c(O)cc(O)cc2O)C(=O)c2ccccc21 measure=TGI reported=38.5

// switching to the query molecule
Lab note: measured TGI of "O=C1C[C@@H]2/C(=C(O)\C=C\c3ccccc3)C(=O)C=C[C@@H]2O1" was 1.93

* * *

Tested on: HOP-62 NSCLC
Assay: NCI tumour cell line growth inhibition, 48 h; in the data active = GI50 below about 0.43 µM; inactive = the rest
Answer with one of the outcomes yes (1) = active, no (0) = inactive

compound=CCN1CCN(CC(=O)N2c3cccc4cccc(c34)N(C(=O)CN3CCN(CC)CC3)C2c2cn(-c3ccccc3)nc2-c2cccc([N+](=O)[O-])c2)CC1 tgt="HOP-62 NSCLC" assignedlabel="no (0)"
compound=Cc1ccc(Cl)cc1NC(=O)c1sc2nc3c(cc2c1N)C(=O)CCC3 tgt="HOP-62 NSCLC" assignedlabel="no (0)"
compound=COC(=O)CC[C@H](Cc1ccccc1)NC(=O)c1csc([C@@H](C[C@H](C(C)C)N(C)C(=O)[C@@H](NC(=O)[C@H]2CCCCN2C)C(C)C)OC(C)=O)n1 tgt="HOP-62 NSCLC" assignedlabel="yes (1)"
compound=Cc1ncc(C(=O)Nc2ccc(CN3CCN(C)CC3)c(C(F)(F)F)c2)cc1C#Cc1cnc(N)cc1C#N tgt="HOP-62 NSCLC" assignedlabel="no (0)"
compound=Cc1cc(N2CCOCC2)cc2[nH]c(-c3c(NC[C@@H](O)c4cccc(Cl)c4)cc[nH]c3=O)nc12 tgt="HOP-62 NSCLC" assignedlabel="no (0)"
compound=C[N+]1=C(/C=C\C=C\c2ccccc2)C(C)(C)c2ccccc21 tgt="HOP-62 NSCLC" assignedlabel="no (0)"

Ask | Outcome? Cc1cnc(C(=O)NNc2nc3sc4c(c3c(=O)n2C)C(C)CCC4)cn1 (stereo not given)
Reply | yes (1)

Ask | Entry "COc1ccc(-c2ccc(-c3ccc(C(=N)N)o3)o2)cc1" : call = ?
Reply | no (0)

Ask | What was the test verdict on "COc1cc(-c2nc(SCCC(C)C)nc(Nc3ccc(S(N)(=O)=O)cc3)c2C#N)cc(OC)c1OC" ?
Reply | no (0)

Ask | Dear all, I need the recorded test outcome for "Oc1ccc2oc3ncc(Br)c(-c4ccccc4)c3c2c1" , thank you.
Reply | no (0)

* * *

System: KM12 colon
Test: NCI tumour cell line growth inhibition, 48 h; in the data active = GI50 below about 0.43 µM; inactive = the rest
Reply using exactly one outcome from class 1 for active, class 0 for inactive

Ask | In this assay, the call recorded for "CN(C)c1ccc(/C=C/c2cc[n+](C)c(/C=C/c3ccc(N(C)C)cc3)c2)cc1" was what?
Reply | class 1

Ask | Call for entry Cc1cnc(C(=O)NNc2nc3sc4c(c3c(=O)n2C)C(C)CCC4)cn1 (configuration not stated) :
Reply | class 1

Ask | # outcome recorded in this test, key = "O=C1c2ccccc2-c2c1c1ccccc1c(=O)n2CCCn1ccnc1"
Reply | class 0

* * *

Listed below: TGI values for each entry.
Tested on: RPMI-8226 leukemia
Test: NCI tumour cell line growth inhibition, 48 h

The examples below pair each entry with its known result.
compound=CC(C)NC(=O)CN1CCN(c2c(O)c3c(c(O)c2Cl)C(=O)C=CC3=O)CC1 measure=TGI reported="7.27 µM"
compound="CC1(C)C2C=CC1C(=O)CC2 (stereo not drawn)" measure=TGI reported="> 100 µM"
compound=COc1ccc(-c2ccc(-c3ccc(C(=N)N)o3)o2)cc1 measure=TGI reported="7.85 µM"
compound="C=C1C2C[C@@H]3O[C@H]4C[C@H]5O[C@@]6(C[C@@H]7O[C@]8(C[C@H](C)[C@@H]9O[C@@H]%10CC(CO)O[C@@H]%10C[C@@H]9O8)C[C@H](C)[C@@H]7O6)C[C@H]5O[C@H]4[C@H](C)[C@H]3OC(=O)C[C@H]3CC[C@@H]4OC5[C@H]6O[C@]7(CC[C@H]8CC(=C)[C@H](CC[C@@H](C[C@H]1C)O2)O8)CC6O[C@@H]5[C@@H](O7)[C@H]4O3 (stereo partly drawn)" measure=TGI reported="> 1 µM"
compound=COc1cc2c(cc1OCCCC(=O)Nc1ccc3ccc4cccc5ccc1c3c45)N=C[C@@H]1CCCN1C2=O measure=TGI reported="0.238 µM"
compound=CN(C)c1ccc(/C=C/c2cc[n+](C)c(/C=C/c3ccc(N(C)C)cc3)c2)cc1 measure=TGI reported="0.675 µM"
compound=OCCNCNc1nc(NCNCCO)nc(N(CNCCO)CNCCO)n1 measure=TGI reported="> 68.2 µM"
compound=CO/N=C(\C)CCC#Cc1ccccc1C(=O)OC measure=TGI reported="> 10 µM"
compound="CCN(CC)C(=O)C(C)n1cc(C)c(=O)[nH]c1=O (stereo not drawn)" measure=TGI reported="> 100 µM"
compound=CCOC(=O)c1ccc(NCC#CCN2CCCCC2)cc1 measure=TGI reported="> 100 µM"

Item: "COc1ccc(C(=O)/C=C/c2cc(O)c(O)c(F)c2F)c(OC)c1" | TGI: 40.8 µM

// TGI lookup, compound = "Clc1ccc(C(n2cc(Br)cn2)n2cc(Br)cn2)cc1" , result: 60.2 µM

Field TGI (entry O=C1CSC(c2cccc([N+](=O)[O-])c2)N1c1ccc(-n2c(-c3ccccc3)nc3ccccc3c2=O)cc1 (stereo not drawn) ) reads > 100 µM

* * *

Tested on: M14 melanoma
Test: NCI tumour cell line growth inhibition, 48 h; in the data active means GI50 below about 0.43 µM; inactive means the rest
Classes to choose from: TRUE = active, FALSE = inactive

Some solved cases for reference:
molecule=OCC#Cc1ccccc1C#CCCCCCC#Cc1ccccc1C#CCO tgt="M14 melanoma" assignedlabel=FALSE
molecule=COc1cc2c(cc1OCCCC(=O)Nc1ccc3ccc4cccc5ccc1c3c45)N=C[C@@H]1CCCN1C2=O tgt="M14 melanoma" assignedlabel=TRUE
molecule=Oc1ccc2oc3ncc(Br)c(-c4ccccc4)c3c2c1 tgt="M14 melanoma" assignedlabel=FALSE
molecule=O=c1c(-c2ccccc2)coc2cc(OC/C(=N/O)c3ccccc3)ccc12 tgt="M14 melanoma" assignedlabel=FALSE
molecule=COc1cc(-c2nc(SCCC(C)C)nc(Nc3ccc(S(N)(=O)=O)cc3)c2C#N)cc(OC)c1OC tgt="M14 melanoma" assignedlabel=FALSE

Ask | Per the records of this test, what outcome belongs to CC(C)=CC1=C2C3=C(C(=O)C4(O)Oc5c(C)c6c7c(c5OC24C)[C@@H](C)CC[C@@H]7[C@@H](C)C[C@H]6C=C(C)C)C(C)CCC3C(C)C1 (stereo not given in full) ?
Reply | FALSE

Ask | Please indicate how the test categorized C=C1CC2(OC1=O)C(=O)Nc1ccccc12 (stereo not given) .
Reply | FALSE

Ask | Just curious, what result did CCCCCCCCCCCCC(O)[C@H]1CC[C@H](C(O)CCCCCC(=O)CCCCC2CC(C(C)=O)C(=O)O2)O1 (stereo not given in full) get here?
Reply | FALSE

Ask | Which outcome was entered for the molecule "Cc1ccc(O)c(NC(=O)c2ccc(CNc3ccnc(C(F)(F)F)c3)cc2)c1" in this test?
Reply | FALSE

Ask | Short answer needed: outcome of this test for "O=C(/C=C/c1ccc(C(F)(F)F)cc1)c1ccc(Nc2nc(NCCO)nc(Nc3ccc(Cl)cc3)n2)cc1" ?
Reply | FALSE

* * *

Tested on: SNB-75 CNS
Experiment: NCI tumour cell line growth inhibition, 48 h
measure: TGI

TGI reported for this molecule "C=C(c1ccccc1)[C@@]1(O)CC[C@@H]1N(CC#N)Cc1ccccc1" : > 96.5 µM

Record summary for "COc1cc2c(cc1OCCCC(=O)Nc1ccc3ccc4cccc5ccc1c3c45)N=C[C@@H]1CCCN1C2=O" : reported TGI = 1.12 µM

Reported TGI ( "Cc1ccnc(NC(NC(=O)c2ccccc2)(C(F)(F)F)C(F)(F)F)c1" ) = > 100 µM

* * *

System: CCRF-CEM leukemia
Experiment: NCI tumour cell line growth inhibition, 48 h
Quick reference: TGI of the listed items.
Quick note: give the figure in µM, leave out the unit.

Solved cases below.
molecule=O=C1C[C@@H]2/C(=C(O)\C=C\c3ccccc3)C(=O)C=C[C@@H]2O1 reported=2.89
molecule="CCCCCCCCCCNC(=O)CCC(NC(=O)c1ccc(N(C)Cc2cnc3nc(N)nc(N)c3n2)cc1)C(=O)NCCCCCCCCCC (stereo unspecified)" reported=5.9
molecule="C=C1CC2(OC1=O)C(=O)Nc1ccccc12 (stereo unspecified)" reported=7.15
molecule="CCCC(=O)Nc1cc(/C=C/C(=O)N2CC(CCl)c3c2cc(O)c2[nH]cc(C)c32)n(C)c1 (stereo unspecified)" reported=0.000155
molecule=COc1ccc(SCc2cc(OCc3ccccc3)c(OCc3ccccc3)c(OCc3ccccc3)c2)cc1 reported=3.49
molecule=Cn1cc(-c2ccc(-c3ccc(C4=NC5(CC5)C(=O)N4C[C@@H]4CCN(C(=O)C5CC5)C4)cc3)cc2)cn1 reported=42.5

Continue with the molecule presented below.
# TGI of "Cc1cc(C)cc(NC(N)=S)c1" = 48
